System: Human immunodeficiency virus 1
Test: Antiviral activity against HIV1 harboring K103 N mutant infected in human MT4 cells assessed as reduction in virus induced cytopathic effect incubated for 5 days by Spectrophotometric based MTT assay
Format: functional, organism-based
Conditions: Human immunodeficiency virus 1, MT4, 120 h
// classify: if (EC50 < 5 nM) 1 (yes) else 0 (no)

- CHEM_SMILES: "Cc1cc(/C=C/C#N)cc(C)c1Oc1ccnc(Nc2ccc(N3CCN(S(N)(=O)=O)CC3)c(C#N)c2)n1"
  TARGET_OR_SYSTEM: "Human immunodeficiency virus 1"
  QUALITATIVE_LABEL: "1 (yes)"

## Input Check if EC50 falls below 5 nM for Cc1cc(/C=C/C#N)cc(C)c1Oc1ccnc(Nc2ccc(N3CCN(C=O)CC3)c(C#N)c2)n1 .
## Output 0 (no)

## Input Identify whether the compound Cc1cc(/C=C/C#N)cc(C)c1Oc1ccnc(Nc2ccc(N3CCS(=O)(=O)CC3)c(C#N)c2)n1 records EC50 below 5 nM.
## Output 1 (yes)

## Input Dear colleague, could you confirm whether EC50 of CC(=O)N1CCN(c2ccc(Nc3nccc(Oc4c(C)cc(/C=C/C#N)cc4C)n3)cc2C#N)CC1 falls below 5 nM? Thanks.
## Output 1 (yes)

## Input Item Cc1cc(/C=C/C#N)cc(C)c1Oc1ccnc(Nc2ccc(N3CCN(S(C)(=O)=O)C3=O)c(C#N)c2)n1 : EC50 beneath 5 nM, strictly?
## Output 1 (yes)

## Input Would you kindly verify if EC50 of CC(=O)C1CCN(c2ccc(Nc3nccc(Oc4c(C)cc(/C=C/C#N)cc4C)n3)cc2C#N)CC1 is strictly less than 5 nM?
## Output 0 (no)

## Input Strictly below 5 nM in EC50? Cc1cc(/C=C/C#N)cc(C)c1Oc1ccnc(Nc2ccc(N3CCC(S(C)(=O)=O)CC3)c(C#N)c2)n1
## Output 0 (no)

---

Biological target: Human immunodeficiency virus type 1 reverse transcriptase (Human immunodeficiency virus 1)
Experiment: Inhibition of wild type HIV1 reverse transcriptase assessed as inhibition of biotin deoxyuridine triphosphate incorporation into cDNA using DIG-labelled dNTP preincubated with compound for 1 hr followed by substrate addition in presence of biotin-labeled dNTPs by ELISA analysis
The molecules listed here are annotated with their pIC50.
Kindly note that pIC50 refers to -log10 of the concentration in mol/L and answer with the value alone.

- CHEM_SMILES: "Cc1cc(/C=C/C#N)cc(C)c1Oc1ccnc(Nc2ccc(N3CCN(S(N)(=O)=O)CC3)c(C#N)c2)n1"
  pIC50: 6.89
- CHEM_SMILES: "Cc1cc(/C=C/C#N)cc(C)c1Oc1ccnc(Nc2ccc(N3CCS(=O)(=O)CC3)c(C#N)c2)n1"
  pIC50: 6.80

## Input So what does the record say about pIC50 for Cc1cc(/C=C/C#N)cc(C)c1Oc1ccnc(Nc2ccc(N3CCN(S(C)(=O)=O)C3=O)c(C#N)c2)n1 ?
## Output 6.62

---

Assay: Selectivity index, ratio of CC50 for cytotoxicity against human MT4 cells to EC50 for antiviral activity against wild type HIV1 IIIB infected in human MT4 cells
Details: mt4
METRIC_NAME: selectivity ratio

## Input Request the reported selectivity ratio associated with Cc1cn([C@H]2C[C@H](N=[N+]=[N-])[C@@H](CO)O2)c(=O)[nH]c1=O
## Output > 212

---

Experiment: Selectivity index, ratio of CC50 for cytotoxicity against human MT4 cells to EC50 for antiviral activity against HIV1 RES056 mutant infected in human MT4 cells
Conditions: mt4
METRIC_NAME: selectivity ratio

## Input Recorded selectivity ratio of Cc1cn([C@H]2C[C@H](N=[N+]=[N-])[C@@H](CO)O2)c(=O)[nH]c1=O [ZIDOVUDINE] , please.
## Output > 214

The measured values listed here are drawn from ChEMBL document CHEMBL6083236.
